# maps each entry to its intrinsic clearance, human liver microsomes

INSERT INTO results (molecule, measured) VALUES
  ('CCCCN(C)C(=O)c1cn(-c2ccc(C)c(C)c2)nn1', '7.6 L/h/kg'),
  ('Cc1cc(CN(C)C(=O)C(=O)Nc2ccc(F)c(C)c2)no1', '0.824 L/h/kg'),
  ('COc1cccc(N(C)CCC(=O)N2CCC(c3ccc(-c4ccc(N)nc4)cn3)CC2)c1', '49.3 L/h/kg'),
  ('O=C(C1CCCN(c2ccc(Cl)nn2)C1)N1CCc2ccccc2C1 (stereo not given)', '7.49 L/h/kg'),
  ('CN(C(=O)[C@@H](N)Cc1ccccc1)c1ccccc1', '≤ 0.284 L/h/kg'),
  ('CC(=O)N1CCCN(C(=O)Cc2csc(C(C)C)n2)CC1', '≤ 0.284 L/h/kg'),
  ('O=C(c1cccc(Nc2ncccn2)c1)N1CCOCC(Cc2cccc3ccncc23)C1 (stereo not given)', '16.8 L/h/kg'),
  ('C#CCNC(=O)CCc1c(C)nn(C)c1C', '≤ 0.284 L/h/kg'),
  ('Cc1nnc2ccc(NCCOC3CCCCCC3)nn12', '2.99 L/h/kg'),
  ('CN(CCSc1ccc2nnc(C(F)F)n2n1)Cc1ccccc1', '14.7 L/h/kg');

Record "COc1ccc2nc(C)nc(N3CC(CO)C3)c2c1" , field intrinsic clearance, human liver microsomes: 0.316 L/h/kg

Record "COCCc1noc(CN2CC(c3ccccc3)(c3ccccc3)CCC2=O)n1" , field intrinsic clearance, human liver microsomes: 12.7 L/h/kg

Record "Clc1ccc(NCc2ccoc2)nn1" , field intrinsic clearance, human liver microsomes: ≤ 0.284 L/h/kg

Record "COc1ccc(C(=O)c2ccc(C)cc2)c(OC)c1" , field intrinsic clearance, human liver microsomes: 6.11 L/h/kg

Record "O=C(NC1CCCCC1)C1CCN(c2ccncc2Cl)CC1" , field intrinsic clearance, human liver microsomes: 1.34 L/h/kg

Record "Cc1nn(C)c(C)c1CCC(=O)N1CCCc2ncccc21" , field intrinsic clearance, human liver microsomes: 4.79 L/h/kg

###

Non-standard residues stand in square brackets, D forms with d. Residues, ends and D or L forms follow the SMILES beside them. *: point of attachment. Fmoc = O=C(OCC1c2ccccc2-c2ccccc21)*; Cha = N[C@@H](CC1CCCCC1)C(=O)O; AMC = Cc1cc(=O)oc2cc(N*)ccc12
Output condition met for MDR1-MDCK efflux ratio not less than 8; output condition not met otherwise.

INSERT INTO assay_data (molecule, category) VALUES
  ('Nc1nc2ccccc2n1CCCc1ccccc1', 'condition not met');

Exercise: Say whether Cc1cc(=O)oc2cc(NC(=O)[C@H](CCCCN)NC(=O)[C@H](CC3CCCCC3)NC(=O)OCC3c4ccccc4-c4ccccc43)ccc12 (Fmoc-[Cha]-Lys-{AMC}) shows MDR1-MDCK efflux ratio of 8 or more.
Key: condition not met

Exercise: Say whether "CC1(c2nnc(-c3cc(-c4ccccc4)n[nH]3)o2)CCOCC1" shows MDR1-MDCK efflux ratio of 8 or more.
Key: condition not met

###

# maps each entry to its intrinsic clearance, rat liver microsomes

INSERT INTO measurements (smiles_representation, measured) VALUES
  ('Cc1noc(C)c1-c1cc(-c2ccccc2Cl)nc(C2CC2)n1', '145 mL/min/kg');

Record "Fc1ccc(CN2CCCN(c3ccc4nnnn4n3)CC2)cc1" , field intrinsic clearance, rat liver microsomes: 620 mL/min/kg

Record "O=C(CCn1cncn1)N(CC#Cc1ccccc1)C1CCCC1" , field intrinsic clearance, rat liver microsomes: 1350 mL/min/kg

Record "Nc1ccccc1OCCn1ccnc1" , field intrinsic clearance, rat liver microsomes: 30.6 mL/min/kg

Record "Cc1ccccc1OCCn1c(N)nc2ccccc21" , field intrinsic clearance, rat liver microsomes: 1760 mL/min/kg

Record "N#CC1(NC(=O)C2CCCCCC2)CC1" , field intrinsic clearance, rat liver microsomes: ≤ 10.7 mL/min/kg

Record "Cc1nn(C)c2ncnc(N(C)Cc3cccc(Cl)c3)c12" , field intrinsic clearance, rat liver microsomes: 652 mL/min/kg

// data source = the Biogen ADME set (Fang et al. 2023)
